test system: N27 rat dopaminergic cells; assay: Suppression of ferroptosis induced by RSL3 in N27 cells (CellTiter-Glo viability); assay type: cell-based; conditions: Rattus norvegicus, N27, 24 h, 20 nM RSL3, 24 hours; separate experiment I; read-out: IC50 I
Quantity Measured: IC50

Data request: # get_value(readout='IC50', item= "Cc1noc(-c2cnc(NC3CCCCC3)c(NC3CCCCC3)c2)n1" )
Data returned: 2.6 nM

Data request: Quick one: "CCC(CC)Nc1cc(-c2nc(C)no2)cnc1NC1CCCCC1"
Data returned: 0.8 nM

Data request: Quick one: "Cc1noc(-c2cnc(NC3CCCC3)c(NC3CCCC3)c2)n1"
Data returned: 1.5 nM

====

experiment: Plasma Stability Assay (Examples 6 and 8); assay type: in vitro ADME, mouse; conditions: mouse, plasma diluted 1:1 in phosphate buffer, pH 7.4; plasma half-life, experiment I; read-out: t1/2 I
Quantity Measured: half-life at 20 µM

Data request: # get_value(readout='half-life at 20 µM', item= "CCC(CC)Nc1cc(-c2nc(C)no2)cnc1NC1CCCCC1" )
Data returned: > 4 h

Data request: Quick one: "Cc1noc(-c2cnc(NC3CCCC3)c(NC3CCCC3)c2)n1"
Data returned: > 4 h

Data request: Quick one: "Cc1noc(-c2cnc(NC3CCCCC3)c(NC3CCCCC3)c2)n1"
Data returned: > 4 h

====

assay: PHB4082 IP, IV Study (cyclodextrin/PEG/tween vehicle); type: in vivo, C57BL/6 mice; settings: both sexes, C57BL/6, mouse, plasma; IP Administration, 2 hr, 10 mg/kg; read-out: [PHB4082]plasma
Quantity Measured: concentration at 2 h

Data request: # get_value(readout='concentration at 2 h', item= Cc1noc(-c2ccc(NC3CCCCC3)c(NC3CCCCC3)c2)n1 [PHB4082] )
Data returned: 957 nM

====

assay: In vivo pharmacokinetic study of TH-4-55-2 in drinking water (four days); set-up: species or system R6/2 mice; details: both sexes, R6/2, mouse, brain, oral, 20-30 mg/kg/day, 4-day treatment, read-out: concentration in brain samples
Quantity Measured: concentration at 4 days

Data request: # get_value(readout='concentration at 4 days', item= CCC(CC)Nc1cc(-c2nc(C)no2)cnc1NC1CCCCC1 [TH-4-55-2] )
Data returned: 1.5 to 33 µM

====

assay: PHB4082 IP, IV Study (cyclodextrin/PEG/tween vehicle); format: in vivo, C57BL/6 mice; details: both sexes, C57BL/6, mouse, brain, 10 mg/kg; IV Administration, 4 hr; read-out: [PHB4082]brain
Quantity Measured: concentration at 4 h

Data request: # get_value(readout='concentration at 4 h', item= Cc1noc(-c2ccc(NC3CCCCC3)c(NC3CCCCC3)c2)n1 [PHB4082] )
Data returned: 176 nM

====

assay: Microsomal Stability Assay (Examples 6 and 8); type: in vitro ADME, mouse; conditions: CD-1, mouse, liver microsomes, pH 7.4, independent test I; read-out: t1/2 I
Quantity Measured: half-life at 20 µM

Data request: # get_value(readout='half-life at 20 µM', item= Cc1noc(-c2cnc(NC3CCCCC3)c(NC3CCCCC3)c2)n1 [TH-2-31] )
Data returned: > 2 h

Data request: Quick one: Cc1noc(-c2cnc(NC3CCCC3)c(NC3CCCC3)c2)n1 [TH-4-67]
Data returned: > 2 h

Data request: Quick one: CCC(CC)Nc1cc(-c2nc(C)no2)cnc1NC1CCCCC1 [TH-4-55-2]
Data returned: > 2 h
